- experimentalSystem: STAT6 (Homo sapiens)
- Construct: stably transfected HaCaT keratinocyte cell line, which expresses NanoLuc luciferase reporter gene under the transcriptional control of the STAT6 responsive promoter; endogenous in cells; host or cells: HaCaT keratinocyte reporter cell line (stably transfected with a NanoLuc reporter)
- Sequence (P42226 whole entry): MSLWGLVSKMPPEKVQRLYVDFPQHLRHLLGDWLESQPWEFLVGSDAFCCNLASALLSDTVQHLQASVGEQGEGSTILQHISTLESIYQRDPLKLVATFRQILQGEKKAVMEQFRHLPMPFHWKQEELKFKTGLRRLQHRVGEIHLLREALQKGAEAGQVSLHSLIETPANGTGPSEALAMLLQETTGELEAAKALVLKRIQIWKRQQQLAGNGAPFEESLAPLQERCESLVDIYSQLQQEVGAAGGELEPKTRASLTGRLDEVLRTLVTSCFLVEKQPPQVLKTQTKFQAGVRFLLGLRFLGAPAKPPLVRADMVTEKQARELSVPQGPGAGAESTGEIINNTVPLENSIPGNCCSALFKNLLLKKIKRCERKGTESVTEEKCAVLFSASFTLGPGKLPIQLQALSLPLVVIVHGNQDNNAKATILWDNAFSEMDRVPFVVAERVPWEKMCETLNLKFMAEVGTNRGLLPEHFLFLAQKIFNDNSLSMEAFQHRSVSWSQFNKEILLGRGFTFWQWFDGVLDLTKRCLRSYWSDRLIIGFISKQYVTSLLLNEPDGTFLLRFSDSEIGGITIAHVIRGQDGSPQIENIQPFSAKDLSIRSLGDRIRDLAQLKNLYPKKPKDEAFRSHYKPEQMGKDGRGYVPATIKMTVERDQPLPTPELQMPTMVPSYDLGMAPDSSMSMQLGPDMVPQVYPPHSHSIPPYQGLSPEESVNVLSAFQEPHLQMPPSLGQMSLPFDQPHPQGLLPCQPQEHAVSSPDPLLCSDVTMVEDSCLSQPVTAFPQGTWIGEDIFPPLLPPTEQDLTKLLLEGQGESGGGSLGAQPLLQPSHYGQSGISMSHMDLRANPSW
- experiment: STAT6 Reporter Luciferase Assay (IL-13 stimulated HaCaT keratinocyte NanoLuc reporter cells)
- Assay type: cell-based
- measurementParameters: IL-13 stimulated HaCaT STAT6 NanoLuc reporter cells; read-out: Reporter EC50
pEC50: −log10 of the molar value.
Binary classification by pEC50, with 7 as an inclusive lower bound for Criterion met; all other cases are Criterion not met.

These solved cases illustrate the format of a correct answer.
>>> category("CC[C@H]1c2c(C(=O)NCc3ccc(NC(=O)N(C)C)cc3)nn(C(C)C)c2CCN1c1ccc(C(=O)N(C)C)cn1 (single isomer, unassigned) [Example 527]")
"Criterion not met"
>>> category("CC(C)n1nc(C(=O)NCc2ccc(NC(=O)N3CCC(C(=O)O)CC3)c(F)c2)c2c1[C@@H](C)CN(c1ccc(C(=O)N(C)C)cc1)C2")
"Criterion met"
>>> category("CC(C)n1nc(C(=O)NCc2ccc(NC(=O)N3CCNCC3)cc2)c2c1[C@@H](C)CN(c1ccc(C(=O)N(C)C)cc1)C2")
"Criterion met"

Would you say "CC(C)n1nc(C(=O)NCc2ccc(NC(=O)N(C)C)cc2)c2c1CCN(c1ccc(C(=O)N3CCc4cncnc4C3)cn1)C2" shows pEC50 at minimum 7?
Criterion not met

Would you say "CC(C)n1nc(C(=O)NCc2ccc(NC(=O)N3CCCN(C)CC3)cc2)c2c1[C@@H](C)CN(c1ccc(C(=O)N(C)C)cc1)C2" shows pEC50 at minimum 7?
Criterion met
